Hello, the source for this data is patent US20260374766A1, in case you need it.

biological target: p53 Y220C mutant protein (amino acid residues 94-293) (Homo sapiens, UniProt P04637, Y220C); construct: p53 Y220C mutant protein (amino acid residues 94-293); assay: Surface Plasmon Resonance (SPR) assay, Kd_kinetic; format: binding; conditions: SPR, kinetic KD, p53 Y220C; read-out: SPR P53 Y220C KD kinetic
assay readout: Kd

[[record]]
compound = "CNC(=O)c1ccc(NCC#Cc2nc3c(N[C@@H]4CCN(C)C[C@@H]4F)cc(F)cn3c2SC(F)(F)F)c(OC)c1 [Example 180]"
result = "< 10 nM"

[[record]]
compound = "CNC(=O)c1ccc(NCC#Cc2nc3c(N[C@@H]4CCn5nccc5C4)cccn3c2SC(F)(F)F)c(OC)c1 [Example 179]"
result = "10 to 100 nM"

[[record]]
compound = "CNC(=O)c1ccc(NCC#Cc2nn3c(N[C@@H]4CCN(C)C[C@@H]4F)ccnc3c2SC(F)(F)F)c(OC)c1 [Example 205]"
result = "10 to 100 nM"

[[record]]
compound = "CNC(=O)c1cccc(NCC#Cc2nc3c(N[C@@H]4CCN(C)C[C@@H]4F)cccn3c2SC(F)(F)F)n1 [Example 162]"
result = "< 10 nM"

[[record]]
compound = "COc1cc(C(=O)N2CCC2)ccc1NCC#Cc1nc2c(N[C@@H]3CCN(C)C[C@@H]3F)cccn2c1SC(F)(F)F [Example 87]"
result = "< 10 nM"

[[record]]
compound = "CNC(=O)c1ccc(NCC#Cc2nc3c(N[C@@H]4CCN(C)C[C@@H]4F)cccn3c2CC(F)(F)F)c(OCC(F)(F)F)c1 [Example 61]"
result = "10 to 100 nM"

[[record]]
compound = "COc1cc(S(C)(=O)=O)ccc1NCC#Cc1nc2c(NC3CCN(C(C)C)CC3)cccn2c1CC(F)(F)F [Example 9]"
result = "10 to 100 nM"


---

Each item that follows carries a reported AC50.
target: p53 Y220C (Homo sapiens, UniProt P04637, Y220C); assay: Luciferase Reporter Assay (Luc), p53 response element, NClH1299 cells with inducible p53 Y220C; assay type: cell-based; settings: AC50; luciferase reporter, NClH1299 inducible p53 Y220C, 6 hour; read-out: Luc P53 Y220C AC50
assay readout: AC50

[[record]]
entry_smiles = "CN1CC[C@@H](Nc2cccn3c(SC(F)(F)F)c(C#CCNc4ccc(P(C)(C)=O)c5c4OCC5)cc23)[C@@H](F)C1"
result = "< 750 nM"

[[record]]
entry_smiles = "CNC(=O)c1cc(NCC#Cc2nc3c(N[C@@H]4CCN(C)C[C@@H]4F)cccn3c2SC(F)(F)F)c2nccn2c1"
result = "< 750 nM"

[[record]]
entry_smiles = "CNC(=O)c1ccc(OC)c(NCC#Cc2nc3c(N[C@@H]4C[C@@H]5CC[C@H]4N5C)cccn3c2SC(F)(F)F)c1"
result = "750 to 1500 nM"

[[record]]
entry_smiles = "CNC(=O)c1ccc(NCC#Cc2nc3c(NC4CCOCC4)cccn3c2SC(F)(F)F)c(OC)c1"
result = "< 750 nM"


---

target: p53 Y220C mutant protein (amino acid residues 94-293) (Homo sapiens, UniProt P04637, Y220C); construct: p53 Y220C mutant protein (amino acid residues 94-293); assay: Surface Plasmon Resonance (SPR) assay, Kd_kinetic; assay type: binding; conditions: SPR; p53 Y220C; read-out: SPR P53 Y220C KD kinetic
assay readout: Kd

[[record]]
entry_smiles = "COc1cc(C(=O)NCC2(O)CC2)ccc1NCC#Cc1cc2c(N[C@@H]3CCN(C)C[C@@H]3F)cccn2c1SC(F)(F)F"
result = "< 0.01 µM"

[[record]]
entry_smiles = "CN1CC[C@@H](Nc2cccn3c(SC(F)(F)F)c(C#CCNc4cc(C(=O)NCC5(O)CC5)ccc4OC4COC4)cc23)[C@@H](F)C1"
result = "< 0.01 µM"

[[record]]
entry_smiles = "COc1ccc(C(=O)NCC2CN(C)C2)cc1NCC#Cc1nc2c(N[C@@H]3CCOC[C@@H]3F)cccn2c1SC(F)(F)F"
result = "< 0.01 µM"


---

Each item that follows carries a reported Kd.
target: p53 Y220C mutant protein (amino acid residues 94-293) (Homo sapiens, UniProt P04637, Y220C); construct: p53 Y220C mutant protein (amino acid residues 94-293); experiment: Surface Plasmon Resonance (SPR) assay, Kd_kinetic; type: binding; details: SPR, kinetic KD, p53 Y220C; read-out: SPR P53 Y220C KD kinetic
assay readout: Kd

[[record]]
compound = "COc1cc(S(C)(=O)=O)ccc1NCC#Cc1nc2c(NC3CCN(CC(C)(C)O)CC3)cccn2c1CC(F)(F)F [Example 11]"
result = "10 to 100 nM"

[[record]]
compound = "COc1cc(S(C)(=O)=O)ccc1NCC#Cc1nc2c(NC3CCN(C)CC3)cccn2c1CC(F)(F)F [Example 2]"
result = "10 to 100 nM"

[[record]]
compound = "CNC(=O)c1ccc(NCC#Cc2nc3c(N[C@H]4CCC(=O)N(C)C4)cccn3c2SC(F)(F)F)c(OC)c1 [Example 187]"
result = "< 10 nM"

[[record]]
compound = "CN1CC[C@@H](Nc2cccn3c(CC(F)(F)F)c(C#CCNc4ccccc4)nc23)[C@@H](F)C1 [Example 112]"
result = "100 to 1000 nM"

[[record]]
compound = "CN1CC[C@@H](Nc2cccn3c(CC(F)(F)F)c(C#CCNc4ccc(S(C)(=O)=O)cc4)nc23)[C@@H](F)C1 [Example 76]"
result = "< 10 nM"

[[record]]
compound = "COc1cc(C(=O)N(C)C)ccc1NCC#Cc1nc2c(N[C@@H]3CCN(C)C[C@@H]3F)cccn2c1SC(F)(F)F [Example 88]"
result = "< 10 nM"

[[record]]
compound = "CNC(=O)c1ccc(NCC#Cc2nc3c(N[C@@H]4CCC(=O)N(C)C4)cccn3c2SC(F)(F)F)c(OC)c1 [Example 188]"
result = "10 to 100 nM"


---

Each item that follows carries a reported ΔTm at 10 µM.
target: p53 Y220C mutant protein (amino acid residues 94-293) (Homo sapiens, UniProt P04637, Y220C); construct: p53 Y220C mutant protein (amino acid residues 94-293); test: Thermal Shift Assay (TSA), dTM; type: binding; conditions: thermal shift, 10 uM compound; read-out: TSA P53 Y220C dTM (10 uM)
assay readout: ΔTm at 10 µM

[[record]]
compound = "CNC(=O)c1ccc(OC)c(NCC#Cc2nn3c(N[C@@H]4CCN(C)C[C@@H]4F)cccc3c2SC(F)F)c1"
result = "≥ 10 °C"

[[record]]
compound = "CNC(=O)c1ccc(NCC#Cc2nc3c(N[C@@H]4CN(C)CC[C@@H]4F)cccn3c2SC(F)(F)F)c(OC)c1"
result = "≥ 10 °C"

[[record]]
compound = "CNC(=O)c1ccc(NCC#Cc2nc3c(N[C@H]4CCn5cncc5C4)cccn3c2SC(F)(F)F)c(OC)c1"
result = "≥ 10 °C"

[[record]]
compound = "COc1cc(C(=O)N2CCOCC2)ccc1NCC#Cc1nc2c(N[C@@H]3CCN(C)C[C@@H]3F)cccn2c1SC(F)(F)F"
result = "≥ 10 °C"

[[record]]
compound = "CNC(=O)c1cnc(NCC#Cc2nc3c(N[C@@H]4CCN(C)C[C@@H]4F)cccn3c2SC(F)(F)F)n1C"
result = "5 to 10 °C"

[[record]]
compound = "CNC(=O)c1ccc(OC)c(NCC#Cc2nc3c(N[C@@H]4CCN(C)C[C@@H]4F)cccn3c2SC(F)(F)F)n1"
result = "≥ 10 °C"

[[record]]
compound = "CNC(=O)c1ccc(NCC#Cc2nc3c(N[C@@H]4CCN(C)C[C@@H]4F)cccn3c2SC(F)(F)F)cc1"
result = "≥ 10 °C"

[[record]]
compound = "CNC(=O)c1ccc(NCC#Cc2nc3c(N[C@@H]4CCN(C)C[C@@H]4F)cccn3c2CC(F)(F)F)c(OC)c1"
result = "5 to 10 °C"

[[record]]
compound = "COc1cc2c(cc1NCC#Cc1nc3c(N[C@@H]4CCN(C)C[C@@H]4F)cccn3c1SC(F)(F)F)C(=O)NC2"
result = "≥ 10 °C"

[[record]]
compound = "CNC(=O)c1ccc(NCC#Cc2nc3c(N[C@@H]4C[C@H]5CC[C@@H]([C@@H]4F)N5C)cccn3c2SC(F)(F)F)c(OC)c1"
result = "≥ 10 °C"

[[record]]
compound = "CNC(=O)c1ccc(NCC#Cc2nc3c(N[C@@H]4CCc5ncnn5C4)cccn3c2SC(F)(F)F)c(OC)c1 (stereo in doubt)"
result = "5 to 10 °C"

[[record]]
compound = "CNC(=O)c1ccc(NCC#Cc2nc3c(N[C@H]4C[C@@H]5CC[C@H]([C@H]4F)N5C)cccn3c2SC(F)(F)F)c(OC)c1"
result = "≥ 10 °C"

[[record]]
compound = "CNC(=O)c1cccc(NCC#Cc2nc3c(N[C@@H]4CCN(C)C[C@@H]4F)cccn3c2SC(F)(F)F)c1"
result = "≥ 10 °C"

[[record]]
compound = "CNC(=O)c1ccc(NCC#Cc2nc3c(N[C@@H]4CCN(C)C[C@@H]4F)cccn3c2SC(F)(F)F)c(OC(F)F)c1"
result = "≥ 10 °C"

